Tested on: KB-V1 (MDR1++)
Assay: Cell survival assay (SRB), KB-V1 (MDR1++)
Decide using Ratio KBV1/KB: a value greater than or equal to 40 is 1.0, a smaller one is 0.0.

{"COMPOUND": "CCOC(=O)/C(C)=C/[C@H](C(C)C)N(C)C(=O)[C@@H](NC(=O)[C@@H](NC)C(C)(C)c1cc2ccccc2s1)C(C)(C)C", "ASSIGNED_LABEL": 0.0}
{"COMPOUND": "CN[C@H](C(=O)N[C@H](C(=O)N(C)[C@H](/C=C(\\C)C(=O)O)C(C)C)C(C)(C)C)C(C)(C)c1ccc(OC)cc1", "ASSIGNED_LABEL": 1.0}
{"COMPOUND": "CCCCCC(C)(C)[C@H](NC)C(=O)N[C@H](C(=O)N(C)[C@H](/C=C(\\C)C(=O)O)C(C)C)C(C)(C)C", "ASSIGNED_LABEL": 1.0}
{"COMPOUND": "CN[C@@H](C(=O)N[C@H](C(=O)N(C)[C@H](/C=C(\\C)C(=O)O)C(C)C)C(C)(C)C)C(C)(C)c1ccc(Cl)cc1", "ASSIGNED_LABEL": 1.0}
{"COMPOUND": "CN[C@H](C(=O)N[C@H](C(=O)N[C@H](/C=C(\\C)C(=O)O)CC(C)C)C(C)(C)C)C(C)(C)c1ccccc1.O=C(O)C(F)(F)F", "ASSIGNED_LABEL": 0.0}
